Test: chemical genetic growth profiling, strain panel (AID 1159580);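 further: tested at 20 µM; growth read once vehicle control cultures reached saturation at 30 °C; 1 = growth at the plate median or of vehicle wells; lower values mean less growth of the strain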
Conditions: S. cerevisiae deletion strains, growth OD, locus YEL061C, strain CIN8, hits give low values
About 2,000 (36%) of roughly 5,500 compounds were called active. About 18% were inconclusive and are not listed. The list shows a part of the results.
readout: normalized growth
Answer with a bare number; do not write a unit.

# annotated cases, reported normalized growth shown
{"compound": "O=C1ON=C(c2ccccc2)/C1=C/c1ccc(Cl)cc1", "normalized growth": 0.637}
{"compound": "O=C1c2c(O)cccc2Cc2cccc(O)c21", "normalized growth": 1}
{"compound": "Cc1ccc(S(=O)(=O)NC(=O)NN2CC3CCCC3C2)cc1 (configuration not stated)", "normalized growth": 1}
{"compound": "COc1cccc(OC)c1OCCNCC1COc2ccccc2O1 (configuration not stated)", "normalized growth": 1.01}
{"compound": "Cc1nc(-c2nnc(Sc3ccc(C(F)(F)F)cc3[N+](=O)[O-])n2C)cs1", "normalized growth": 0.998}
{"compound": "O=C(N/N=C\\c1c(O)ccc2ccccc12)N/N=C\\c1c(O)ccc2ccccc12", "normalized growth": 0.962}

Here is the next item to consider.
Exercise: For the compound COC(=O)C[C@H]1C(C)(C)C(=O)[C@@H]2CC3C4=CC(=O)O[C@@H](c5ccoc5)[C@]4(C)CCC3[C@@]1(C)C2=O (some centres not stated) , give its measured normalized growth value.
Key: 0.978

* * *

Test: chemical genetic growth profiling, strain panel (AID 1159580);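 further: tested at 20 µM; growth read once vehicle control cultures reached saturation at 30 °C; 1 = growth at the plate median or of vehicle wells; lower values mean less growth of the strain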
Settings: S. cerevisiae deletion strains, growth OD, locus YOR083W, strain WHI5 (second series), hits give low values
In all, about 5,500 compounds went through this assay and about 2,000 (36%) were called active. About 18% were inconclusive and are not listed. Some of the results follow.
Listed here: items and their measured normalized growth.
Answer with a bare number; do not write a unit.

{"molecule": "Cn1ccnc1", "endpoint value": 1.02}
{"molecule": "Nc1ncnc2c1c(-c1ccc(Oc3ccccc3)cc1)cn2C1CCCC1", "endpoint value": 0.838}
{"molecule": "NC(=O)c1cc[n+](CC2=C(C(=O)O)N3C(=O)[C@@H](NC(=O)[C@@H](c4ccccc4)S(=O)(=O)[O-])[C@H]3SC2)cc1", "endpoint value": 1.07}

Exercise: For the molecule C=CCn1c(=O)c2c(nc(-c3ccc(S(=O)(=O)O)cc3)n2C)n(C)c1=O , give its measured normalized growth value.
Key: 1.03

Exercise: For the molecule c1cnc(N2CCN(Cc3ccc4c(c3)OCO4)CC2)nc1 , give its measured normalized growth value.
Key: 0.985

* * *

Assay: chemical genetic growth profiling, strain panel (AID 1159580);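 further: tested at 20 µM; growth read once vehicle control cultures reached saturation at 30 °C; 1 = growth at the plate median or of vehicle wells; lower values mean less growth of the strain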
Settings: S. cerevisiae deletion strains, growth OD, locus YBR229C, strain ROT2, hits give low values
In all, about 5,500 compounds went through this assay and about 2,000 (36%) were called active. Inconclusive results (about 18%) are left out. The list shows a part of the results.
readout: normalized growth
Answer with a bare number; do not write a unit.

# annotated cases, reported normalized growth shown
{"compound": "CC(C)=CCCC1(C)C=Cc2c(O)c3c(c(CC=C(C)C)c2O1)OC12C(=CC4CC1C(C)(C)OC2(C/C=C(/C)C(=O)O)C4O)C3=O (stereo not drawn)", "readout": "normalized growth", "endpoint value": 0.947}
{"compound": "CC(C)=CCCC1(C)C=Cc2c(O)c3c(c(CC=C(C)C)c2O1)OC12C(CC4CC1C(C)(C)OC2(C/C=C(/C)C(=O)O)C4O)C3=O (stereo not drawn)", "readout": "normalized growth", "endpoint value": 0.959}

Here is the next item to consider.
Exercise: For the compound CC(C)=CCCC1(C)C=Cc2c(O)c3c(c(CC=C(C)C)c2O1)OC12C(=CCCC1C(C)(C)O[C@@]2(C/C=C(\C)C(=O)O)C(=O)O)C3=O (stereo partly drawn) , give its measured normalized growth value.
Key: 0.903
